Biological target: T1, cynomolgus monkey PILRA extracellular domain (recombinant) (cynomolgus monkey)
T1 construct: also called cynoPILRA; Cyno PILRA
T1 sequence (chain, as listed by the source limits assumed): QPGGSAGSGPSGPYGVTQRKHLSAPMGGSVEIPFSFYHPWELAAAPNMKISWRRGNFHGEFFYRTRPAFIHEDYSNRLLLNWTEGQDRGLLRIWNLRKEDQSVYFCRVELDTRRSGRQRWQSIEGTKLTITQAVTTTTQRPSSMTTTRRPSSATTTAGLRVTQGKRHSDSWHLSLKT
Assay: SPR, Biacore 8K, recombinant ECD
Value Kind: binding result

Ask | What value of binding result has been reported for the following binder? Reference Antibody #4 (antibody, human IgG1, kappa, L234A L235A, V domains shown) VH: QVTLKESGPGILQPSQTLSLTCSFSGFSLTTFGMGVGWIRQPSGKGLEWLAHIWWDDDKYYNPALKSRLTISKDISKNQVFLKIANVDTADTATYYCARIEDYGNPFDYWGQGTTLTVSS VL: DIQMNQSPSSLSASLGDTITITCHASQNIHVWLSWYQQKPGNIPKLLIYKASNLHTGVPSRFSGSGSGTGFTLTISSLQPEDIATYYCQQGQSYPLTFGAGTKLELKR
Reply | no binding

Ask | What value of measured binding result is listed for Anti-PILRA antibody clone 10 (antibody, V domains shown, also called Ab; Clone 10) VH: EVQLVQSGAEIRKPGESLKISCKGSGYSFTTYWIAWVRQMPGKGLEWMGIIYPGDSDTRYSPSFQGQVTISADKSITTAYLQWSSLKASDTGIYYCARTYYYFSGSHWDAFDIWGQGTMVTVSS VL: DIQMTQSPSSVSAYVGDRVTITCRASQDIRDCLAWYQQKPGKAPKFLIYAASSFQSGVPSGFSGSGSGTDFTLTVTSLQPEDSATYYCQQTHSFPYTFGQGTKLEIK ?
Reply | no binding
